These data points were gathered from patent US20160058743A1.

- Test details: 4-aminopyridine plasma levels 90 min after dosing (LC-MS/MS)
- Format: in vivo, Sprague Dawley rats
- Reported conditions: Sprague Dawley, rat, oral, 0.63 mg/kg, Group 3, Phase 3, Low 0.63 mg/kg b.i.d. p.o., 90 min after dosing, read-out: Mean (SE) 4-aminopyridine Plasma Level
Metric: concentration at 90 min

1. Nc1ccncc1 [4-AP, 4-aminopyridine] ... 61.8 ng/mL

---

- Test details: 4-aminopyridine plasma levels 90 min after dosing (LC-MS/MS)
- Assay type: in vivo, Sprague Dawley rats
- Reported conditions: Sprague Dawley, rat, oral, 2 mg/kg, Group 1, Phase 1, High 2.0 mg/kg b.i.d. p.o., 90 min after dosing, read-out: Mean (SE) 4-aminopyridine Plasma Level
Metric: concentration at 90 min

1. Nc1ccncc1 ... 142 ng/mL

---

- Test details: 4-aminopyridine plasma levels 90 min after dosing (LC-MS/MS)
- Assay type: in vivo, Sprague Dawley rats
- Reported conditions: Sprague Dawley, rat, oral, 2 mg/kg, Group 3, Phase 2, High 2.0 mg/kg b.i.d. p.o., 90 min after dosing, read-out: Mean (SE) 4-aminopyridine Plasma Level
Metric: concentration at 90 min (ng/mL)

1) Nc1ccncc1 [4-AP, 4-aminopyridine] ... 129

---

- Test details: 4-aminopyridine plasma levels 90 min after dosing (LC-MS/MS)
- Format: in vivo, Sprague Dawley rats
- Reported conditions: Sprague Dawley, rat, oral, 2 mg/kg, Example 17 dose escalation, Dose Level 2.0 mg/kg b.i.d. p.o., 90 min after 6th dose, read-out: Mean (SE) 4-aminopyridine Plasma Level
Metric: concentration at 90 min (ng/mL)

1. Nc1ccncc1 [4-AP, 4-aminopyridine] ... 185

---

- Test details: 4-aminopyridine plasma levels 90 min after dosing (LC-MS/MS)
- Assay type: in vivo, Sprague Dawley rats
- Reported conditions: Sprague Dawley, rat, oral, 0.63 mg/kg, Group 1, Phase 2, Low 0.63 mg/kg b.i.d. p.o., 90 min after dosing, read-out: Mean (SE) 4-aminopyridine Plasma Level
Metric: concentration at 90 min (ng/mL)

1. Nc1ccncc1 [4-AP, 4-aminopyridine] ... 64

---

- Test details: 4-aminopyridine plasma levels 90 min after dosing (LC-MS/MS)
- Assay type: in vivo, Sprague Dawley rats
- Reported conditions: Sprague Dawley, rat, oral, 0.63 mg/kg, Group 2, Phase 1, Low 0.63 mg/kg b.i.d. p.o., 90 min after dosing, read-out: Mean (SE) 4-aminopyridine Plasma Level
Metric: concentration at 90 min

1. Nc1ccncc1 [4-AP, 4-aminopyridine] ... 78.1 ng/mL

---

- Test details: 4-aminopyridine plasma levels 90 min after dosing (LC-MS/MS)
- Assay type: in vivo, Sprague Dawley rats
- Reported conditions: Sprague Dawley, rat, oral, 0.5 mg/kg, Example 17 dose escalation, Dose Level 0.5 mg/kg b.i.d. p.o., 90 min after 6th dose, read-out: Mean (SE) 4-aminopyridine Plasma Level
Metric: concentration at 90 min (ng/mL)

1. Nc1ccncc1 [4-AP, 4-aminopyridine] ... 68.3
